Data credit: patent US11479587B2

system: P. aeruginosa ATCC 10145; experiment: CFU-assay, P. aeruginosa-cidal activity; assay type: cell-based, Pseudomonas aeruginosa; conditions: pH 5.5, 0.25% glucose
reported-endpoint: MBC100 (µg/mL)

[[record]]
molecule = "GHGRQGSGSRQSPSHVRHGSGSGHSSSHGQHGSGSSYSYSRGHYESGSGQTSGFGQHESGSGQSSGY (Peptide derived from human hornerin (HRNR 295-361)) GHGRQGSGSRQSPSHVRHGSGSGHSSSHGQHGSGSSYSYSRGHYESGSGQTSGFGQHESGSGQSSGY"
value = 0.59

[[record]]
molecule = "GHKSSSGQSSGYTQHGSGSGHSSSYEQHGSRSGQSSRSEQHGSSSGSSSSYGQHGSGSRQSL (Peptide derived from human hornerin (HRNR 933-994)) GHKSSSGQSSGYTQHGSGSGHSSSYEQHGSRSGQSSRSEQHGSSSGSSSSYGQHGSGSRQSL"
value = 2.35

[[record]]
molecule = "SQHKSSSGQSSGYSQHGSGSGHSSGYGQHGSRSGQSSRGDRHRSSSGSSSSYGQHGSGSRQSL (Peptide derived from human hornerin (HRNR 232-294)) SQHKSSSGQSSGYSQHGSGSGHSSGYGQHGSRSGQSSRGDRHRSSSGSSSSYGQHGSGSRQSL"
value = 2.35

[[record]]
molecule = "LGHGQHGSGSGQSPSPSRGRHGSGSGQSSSYGPYRSGSGWSSSRGPYESGSGHSSGLGHRER (Peptide derived from human hornerin (HRNR 995-1056)) LGHGQHGSGSGQSPSPSRGRHGSGSGQSSSYGPYRSGSGWSSSRGPYESGSGHSSGLGHRER"
value = 2.35

